System: DNA polymerase
Assay summary: Primer extension reaction with XNTPs as substrates (additive screen and MGB titration), gel electrophoresis of Xpandomer products
Format: biochemical
Study conditions: additive screen; primer extension with XNTPs, 1 hr at 23° C.; additives typically tested in the micro to millimolar range
Where a name gives a salt, the structure may show the parent alone.
Outcome measure: Extension Effect

                                    molecule  target_under_test    observed
 0       N=C(N)NCCC[C@H](N)C(=O)O [Arginine]     DNA polymerase  Inhibitory
 1  O=S(=O)([O-])CCC[n+]1ccccc1 [3-(1-pyridinio)-1-propanesulfonate]     DNA polymerase   No effect
 2                         CC(C)=O [Acetone]     DNA polymerase  Beneficial
 3  N[C@@H](Cc1ccc(OP(=O)(O)O)cc1)C(=O)O [O-Phospho-L-tyrosine]     DNA polymerase  Inhibitory
 4                  NCc1ccccc1 [Benzylamine]     DNA polymerase   No effect
 5                            NC(N)=O [Urea]     DNA polymerase  Beneficial
 6  O=C(/C=C/C=C/c1ccc2c(c1)OCO2)N1CCCCC1 [Piperdine]     DNA polymerase  Inhibitory
 7  CCCCCCCCCCCCCC(=O)NCCC[N+](C)(C)CCCS(=O)(=O)[O-] [ASB-14 (amidosulfobetaine)]     DNA polymerase   No effect
 8  CC1COC(=O)O1 (centres unmarked) [Propylene carbonate]     DNA polymerase  Inhibitory
 9  CCCCCCCCCCCCOS(=O)(=O)[O-].[Na+] [Sodium docecyl sulfate]     DNA polymerase   No effect
10              C[N+](C)(C)CC(=O)O [Betaine]     DNA polymerase  Inhibitory
11  N=C(N)c1ccc(OCCCCCOc2ccc(C(=N)N)cc2)cc1 [Pentamidine isethionate salt, reference compound]     DNA polymerase   No effect
12  N=C(N)c1ccc(-c2cc3ccc(C(=N)N)cc3[nH]2)cc1 [DAPI, reference compound]     DNA polymerase   No effect
13  CN1CCN(c2ccc3[nH]c(-c4ccc5[nH]c(-c6ccc(O)cc6)nc5c4)nc3c2)CC1 [Hoescht Stain solution 33258, reference compound]     DNA polymerase  Beneficial
14                       OCC(O)CO [Glycerol]     DNA polymerase   No effect
15  Cl.Nc1ccc2cc3ccc(N)cc3nc2c1 [3,6-Diaminoacridine Hydrochloride, reference compound]     DNA polymerase  Beneficial
16  Nc1cc(C(=O)O)cc(C(=O)O)c1 [5-Aminoisophthalic acid]     DNA polymerase  Inhibitory
17  CCCCCCCCCCCCN(C)CC(=O)O [N-Lauryl Sarcosine]     DNA polymerase  Inhibitory
18  CCOc1ccc(-c2nc3ccc(-c4nc5ccc(N6CCN(C)CC6)cc5[nH]4)cc3[nH]2)cc1 [Hoescht Stain solution 33342, reference compound]     DNA polymerase  Beneficial
19           [Cl-].[K+] [Potassium Chloride]     DNA polymerase   No effect
20  CCCCCCCCCCCC[N+](C)(C)C.[Cl-] [Dodecyltrimethylammonium chloride]     DNA polymerase  Inhibitory
21  CC(=O)NCC(=O)O.CC(=O)NCC(=O)O.N=C(N)c1ccc(N=NNc2ccc(C(=N)N)cc2)cc1 [Diminazine Aceturate, reference compound]     DNA polymerase   No effect
22                 C1CCOC1 [Tetrahydrofuran]     DNA polymerase   No effect
23                        [Mg+2] [Magnesium]     DNA polymerase  Inhibitory
24  C[N+](C)(C)CC(=O)NN.[Cl-] [Girards Reagent T]     DNA polymerase   No effect
25  CCCCCCCCCCCCC/C=C/[C@@H](O)[C@@H](N)CO [Sphingosine]     DNA polymerase   No effect
26                    c1c[nH]cn1 [Imidazole]     DNA polymerase   No effect
27  NC(COP(=O)(O)O)C(=O)O (racemic) [O-phospho-DL-serine]     DNA polymerase  Inhibitory
28              CN(C)C=O [Dimethylformamide]     DNA polymerase   No effect
29                       CC#N [Acetonitrile]     DNA polymerase   No effect
30              C[N+](=O)[O-] [Nitromethane]     DNA polymerase  Inhibitory
31  Cn1cc(NC(=O)c2cc(NC(=O)CN=C(N)N)cn2C)cc1C(=O)NCCC(=N)N [Netropsin dihydrochloride, reference compound]     DNA polymerase  Beneficial
32     CN1C(=O)CCC1=O [N-methyl succinimide]     DNA polymerase  Beneficial
33   CCCCCC(=O)[O-].[Na+] [Sodium Hexanoate]     DNA polymerase   No effect
34  CN1CCN(c2ccc3nc(-c4ccc5nc(-c6ccc(N(C)C)cc6)[nH]c5c4)[nH]c3c2)CC1 [Hoescht Stain solution 34580, reference compound]     DNA polymerase  Beneficial
35  CC(=O)O.CCN(CC)CC [Triethylamine acetate]     DNA polymerase  Inhibitory
36          O=S(=O)([O-])[O-].[Ni+2] [NiSO4]     DNA polymerase  Inhibitory
37  CCCCCCCc1ccc(C(O)CC[N+](C)(C)CCCS(=O)(=O)[O-])cc1 (centres unmarked) [C7BzO]     DNA polymerase   No effect
38                C[N+](C)(C)C.[Cl-] [TMACl]     DNA polymerase   No effect
